- test_details: qHTS drug screen for cell cycle checkpoint inhibitors in PARPi-resistant BRCA-mutant ovarian cancer cell lines. (AID 1963452)
- setup_conditions: PEO1/OlaR viability, CellTiter-Glo luminescence, 96 h; stronger effect = lower value
The source made the active and inactive calls. The call rests on the fitted dose curve.

compound | Z-AUC
CCOC(=O)[C@@H](N)Cc1ccc(-c2cc(O[C@H](c3ccc(Cl)cc3-n3ccc(C)n3)C(F)(F)F)nc(N)n2)cc1 | -0.389 (inactive)
COC(=O)[C@H](CCCN=C(N)N)NS(=O)(=O)c1ccc(C)cc1 | 1.53 (inactive)
Nc1cccc2c1C(=O)N(C1CCC(=O)NC1=O)C2=O (stereo not drawn) | -0.524 (inactive)
O=C1NCCc2[nH]c(-c3ccncc3)cc21 | -1.33 (inactive)
O=C(Nc1nnc(-c2ccco2)o1)c1cc(-c2ccccc2)nc2ccccc12 | 1.38 (inactive)
CCCCCCCCCCCCc1ccc(S(=O)(=O)Nc2nncs2)cc1 | -0.392 (inactive)
CCc1c(O)cc(O)c(C(=O)c2ccc(OCCN3CCOCC3)c(OC)c2)c1CC(=O)N(CCOC)CCOC | -0.361 (inactive)
C[C@H](NC(=O)Cc1cc(F)cc(F)c1)C(=O)N[C@H](C(=O)OC(C)(C)C)c1ccccc1 | -0.609 (inactive)
